TARGET UNDER TEST: Ramos cells bearing cell-surface VLA-4 (α4β1 integrin) binding to VCAM-1 (Homo sapiens, UniProt P05556+P13612)
Construct: Ramos cells bearing cell-surface VLA-4; endogenous in cells; VCAM-1 made in CHO cells
Sequence (P13612 34-1032): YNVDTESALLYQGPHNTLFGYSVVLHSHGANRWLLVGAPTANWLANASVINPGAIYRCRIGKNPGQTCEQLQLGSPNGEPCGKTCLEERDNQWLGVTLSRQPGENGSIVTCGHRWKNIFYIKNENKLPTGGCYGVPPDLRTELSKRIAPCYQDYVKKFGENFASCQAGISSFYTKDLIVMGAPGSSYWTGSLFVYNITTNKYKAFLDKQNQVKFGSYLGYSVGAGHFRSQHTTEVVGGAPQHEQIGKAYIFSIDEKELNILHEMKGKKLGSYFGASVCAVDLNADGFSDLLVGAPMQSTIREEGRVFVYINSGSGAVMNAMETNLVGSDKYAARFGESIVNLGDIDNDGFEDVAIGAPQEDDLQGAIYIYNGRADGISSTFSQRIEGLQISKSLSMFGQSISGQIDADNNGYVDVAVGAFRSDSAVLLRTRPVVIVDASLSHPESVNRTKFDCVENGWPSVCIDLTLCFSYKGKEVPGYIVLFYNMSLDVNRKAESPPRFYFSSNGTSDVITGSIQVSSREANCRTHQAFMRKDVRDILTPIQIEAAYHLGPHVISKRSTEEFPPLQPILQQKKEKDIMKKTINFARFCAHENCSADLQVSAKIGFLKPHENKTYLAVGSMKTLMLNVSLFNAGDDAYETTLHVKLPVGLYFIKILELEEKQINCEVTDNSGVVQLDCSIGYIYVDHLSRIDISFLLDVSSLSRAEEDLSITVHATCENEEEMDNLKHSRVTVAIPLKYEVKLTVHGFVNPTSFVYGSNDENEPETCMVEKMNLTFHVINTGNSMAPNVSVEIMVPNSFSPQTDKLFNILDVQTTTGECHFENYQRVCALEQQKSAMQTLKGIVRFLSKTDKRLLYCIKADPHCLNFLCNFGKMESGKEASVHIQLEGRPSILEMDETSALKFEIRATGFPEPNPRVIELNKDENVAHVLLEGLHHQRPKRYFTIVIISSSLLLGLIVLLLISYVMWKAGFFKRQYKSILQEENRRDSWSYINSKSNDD
Sequence (P05556 21-798): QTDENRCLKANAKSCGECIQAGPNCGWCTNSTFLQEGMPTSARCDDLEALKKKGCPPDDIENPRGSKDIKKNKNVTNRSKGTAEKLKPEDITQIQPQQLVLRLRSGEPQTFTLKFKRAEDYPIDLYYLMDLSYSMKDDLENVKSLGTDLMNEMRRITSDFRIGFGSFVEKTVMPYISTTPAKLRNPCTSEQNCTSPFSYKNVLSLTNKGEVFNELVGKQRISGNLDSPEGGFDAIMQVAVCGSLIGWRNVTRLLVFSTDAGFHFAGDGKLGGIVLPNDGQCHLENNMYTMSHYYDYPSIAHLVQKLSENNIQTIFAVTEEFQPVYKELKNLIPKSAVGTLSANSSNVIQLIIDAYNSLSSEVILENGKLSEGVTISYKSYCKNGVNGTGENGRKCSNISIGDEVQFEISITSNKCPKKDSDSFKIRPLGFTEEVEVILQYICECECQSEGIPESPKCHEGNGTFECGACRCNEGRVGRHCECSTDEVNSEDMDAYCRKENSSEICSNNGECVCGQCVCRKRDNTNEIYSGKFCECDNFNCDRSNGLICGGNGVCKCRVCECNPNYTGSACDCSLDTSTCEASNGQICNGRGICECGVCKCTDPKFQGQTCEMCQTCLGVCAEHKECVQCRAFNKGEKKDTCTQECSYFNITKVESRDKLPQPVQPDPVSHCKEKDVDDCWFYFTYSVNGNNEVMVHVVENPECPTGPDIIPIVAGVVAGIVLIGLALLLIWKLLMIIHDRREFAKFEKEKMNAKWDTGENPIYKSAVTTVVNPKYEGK
ASSAY PROTOCOL: Ramos (VLA-4) / VCAM-1 Cell-Based Screening Assay (cell adhesion)
ASSAY CONDITIONS: Calcein-AM labelled Ramos cells, VCAM-1 coated plates
Counter-ions that a name gives are not always drawn.

# COMPOUND, UNIT ABBREVIATION, IC50
rows = [
    ("Cc1ccnc(C)c1C(=O)Nc1ccc(C[C@H](NC(=S)C2(CCCCS(C)(=O)=O)CCCC2)C(=O)O)cc1 [Example 53, trifluoroacetic acid salt]", "nM", 148),
    ("CS(=O)(=O)CCCCC1(C(=S)N[C@@H](Cc2ccc(NC(=O)c3c(Cl)cccc3Cl)cc2)C(=O)O)CCCC1", "nM", 30),
    ("CNC(=O)NCCC1(C(=S)N[C@@H](Cc2ccc(NC(=O)c3c(Cl)cccc3Cl)cc2)C(=O)O)CCCC1", "nM", 42.5),
    ("O=C(Nc1ccc(C[C@H](NC(=S)c2ccccc2C(F)(F)F)C(=O)O)cc1)c1c(Cl)cccc1Cl", "nM", 784),
    ("COCCC1(C(=S)N[C@@H](Cc2ccc(NC(=O)c3c(Cl)cccc3Cl)cc2)C(=O)O)CCCC1", "nM", 66.5),
    ("CC(=O)NCCC1(C(=S)N[C@@H](Cc2ccc(NC(=O)c3c(Cl)cccc3Cl)cc2)C(=O)O)CCCC1", "nM", 33),
    ("O=C(Nc1ccc(C[C@H](NC(=S)c2ccccc2F)C(=O)O)cc1)c1c(Cl)cccc1Cl", "nM", 4180),
    ("CS(=O)(=O)CCCCC1(C(=S)N[C@@H](Cc2ccc(NC(=O)c3c(Cl)cccc3Cl)cc2)C(=O)O)CCC1", "nM", 8),
    ("CCc1cccc(C)c1C(=S)N[C@@H](Cc1ccc(NC(=O)c2c(Cl)cccc2Cl)cc1)C(=O)O", "nM", 101),
    ("Cc1cccc(Cl)c1C(=S)N[C@@H](Cc1ccc(NC(=O)c2c(Cl)cccc2Cl)cc1)C(=O)O", "nM", 60),
]
